System: Salmonella typhimurium
Experiment: Antibacterial activity against Salmonella enterica subsp. enterica serovar Typhimurium MTCC 98 after overnight incubation by broth dilution method
Type: functional
Decision: MIC99 beneath 100 µg/mL gives Met; MIC99 meeting or exceeding 100 µg/mL gives Not met.

These recorded examples may help you get a feel for the data.
{"molecule": "O=C(Nn1c(CNN2C(=O)C(Cl)C2c2cccc([N+](=O)[O-])c2)nc2ccccc2c1=O)c1ccncc1 (stereo unspecified)", "answer-label": "Not met"}
{"molecule": "O=C(Nn1c(CNN2C(=O)C(Cl)C2c2ccccc2O)nc2ccccc2c1=O)c1ccncc1 (stereo unspecified)", "answer-label": "Not met"}
{"molecule": "O=C(Nn1c(CNN2C(=O)C(Cl)C2c2ccc([N+](=O)[O-])cc2)nc2ccccc2c1=O)c1ccncc1 (stereo unspecified)", "answer-label": "Not met"}
{"molecule": "O=C(Nn1c(CNN2C(=O)C(Cl)C2c2ccccc2Cl)nc2ccccc2c1=O)c1ccncc1 (stereo unspecified)", "answer-label": "Not met"}
{"molecule": "O=C(Nn1c(CNN2C(=O)C(Cl)C2c2ccccc2[N+](=O)[O-])nc2ccccc2c1=O)c1ccncc1 (stereo unspecified)", "answer-label": "Not met"}
{"molecule": "O=C(Nn1c(CNN2C(=O)C(Cl)C2c2ccc(O)cc2)nc2ccccc2c1=O)c1ccncc1 (stereo unspecified)", "answer-label": "Not met"}
{"molecule": "O=C(N[C@H](CO)[C@H](O)c1ccc([N+](=O)[O-])cc1)C(Cl)Cl", "answer-label": "Met"}

Please let me know if CCn1cc(C(=O)O)c(=O)c2cc(F)c(N3CCNCC3)cc21 shows MIC99 below 100 µg/mL.
Met
